# protocol: Lipophilicity, log D of the compound at pH 7.4
# Type: physicochemical
# testSettings: buffer
assayReadout: logD

[
  {
    "molecule": "O=C(COc1ccc(Cl)cc1)N[C@H]1CC[C@H](NC(=O)COc2ccc(Cl)cc2)CC1",
    "assayReadout": "logD",
    "valueMeasured": 3.7
  },
  {
    "molecule": "O=C(COc1ccc(Cl)cc1)NC12CC(NC(=O)COC3CC3)(C1)C2",
    "assayReadout": "logD",
    "valueMeasured": 2.6
  },
  {
    "molecule": "OC(COC1CCC(Cl)C(F)C1)NC12CC(NC(O)CO[C@H]3C[C@@H](C(F)(F)F)C3)(C1)C2 (stereo partly drawn)",
    "assayReadout": "logD",
    "valueMeasured": 3.1
  },
  {
    "molecule": "O=C(COc1ccc(Cl)c(F)c1)NC12CC(NC(=O)CO[C@H]3C[C@H](C(F)(F)F)C3)(C1)C2",
    "assayReadout": "logD",
    "valueMeasured": 3.6
  },
  {
    "molecule": "O=C(COc1ccc(Cl)cc1)NC12CC(NC(=O)COC3CCCC3)(C1)C2",
    "assayReadout": "logD",
    "valueMeasured": 3.4
  }
]

1. O=C(COCC1CC1)NC12CC(NC(=O)COc3ccc(Cl)cc3)(C1)C2
2. O=C(COc1ccc(Cl)cc1)NC12CC(NC(=O)COC3CCOC3)(C1)C2 (stereo not drawn)
Lookup: Out of 1 and 2 , name the one with the higher logD. Label of pick, please.
Found: 1
(1: 2.9, 2: 1.8)

---

# protocol: Volume of distribution at steady state in dog at 0.5 mg/kg, iv
# Format: ADME, organism-based, Canis lupus familiaris
# testSettings: in vivo, read-out: Vdss
assayReadout: Vd (L/kg)
Response body: numeric value in L/kg, unit text excluded.

Lookup: // lookup Vd for O=C(COc1ccc(Cl)cc1)NC12CC(c3nnc([C@H]4C[C@@H](OC(F)(F)F)C4)o3)(C1)C2
Found: 2.7

---

# protocol: Clearance in rat at 1 mg/kg, iv
# Type: ADME, organism-based
# testSettings: in vivo
assayReadout: clearance (mL/min/kg)
Write it as a number; the unit mL/min/kg goes unstated.

Lookup: Fill in: clearance of O=C(COc1ccc(Cl)cc1)NC12CC(c3nnc([C@H]4C[C@@H](OC(F)(F)F)C4)o3)(C1)C2 [EVETIFATOR] is ___
Found: 0.4

---

# protocol: Clearance in rat at 1 mg/kg, iv by LC-MS/MS analysis
# Format: ADME, organism-based
# testSettings: in vivo
assayReadout: clearance (mL/min/kg)

[
  {
    "structureSmiles": "O=C(COc1ccc(C(F)(F)F)cc1)NC12CC(c3nnc([C@H]4C[C@@H](OC(F)(F)F)C4)o3)(C1)C2",
    "clearance (mL/min/kg)": 0.4
  },
  {
    "structureSmiles": "O=C(COc1ccc(Cl)cc1)NC12CC(c3nnc([C@H]4C[C@@H](OC(F)(F)F)C4)o3)(C1)C2",
    "clearance (mL/min/kg)": 0.4
  }
]

---

# protocol: Volume of distribution at steady state in rat at 1 mg/kg, iv
# Type: ADME, organism-based
# testSettings: in vivo, read-out: Vdss
assayReadout: Vd (L/kg)
The reply should be a number in L/kg, with the unit left off.

Lookup: Vd lookup needed for O=C(COc1ccc(Cl)cc1)NC12CC(c3nnc([C@H]4C[C@@H](OC(F)(F)F)C4)o3)(C1)C2 [EVETIFATOR] , thanks.
Found: 0.31

From: ChEMBL document CHEMBL5543116
